The origin of these recorded values is patent US20260116991A1.

- Test target: monkey GPC3 on HEK293T-monkey GPC3 cells (monkey)
- Assay name: FACS on HEK293T-monkey GPC3 cells
Attribute measured: Max MFI (MFI)
Write down the numeric answer in MFI and omit the unit.

- hAb007LH2L1 (antibody, human IgG1, V domains shown) VH: EVQLVQSGAEVKKPGSSVKVSCKASGYTFTDYEMHWVRQAPGQGLEWMGTIDPETGNTAYNQKFKGRVTITADKSTSTAYMELSSLRSEDTAVYYCTRPYSLTYWGQGTLVTVSS VL: DIVMTQTPLSLPVTPGEPASISCRSSQSFVHSNGDTYLQWYLQKPGQSPQLLIYKVSNRFSGVPDRFSGSGSGTDFTLKISRVEAEDVGVYYCFQGSHVPYTFGQGTKLEIK: 37800
- hAb006LH3L1e (antibody, human IgG1, V domains shown) VH: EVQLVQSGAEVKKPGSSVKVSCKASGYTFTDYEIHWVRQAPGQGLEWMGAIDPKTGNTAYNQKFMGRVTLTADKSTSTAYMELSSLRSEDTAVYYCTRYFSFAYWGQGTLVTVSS VL: DIVMTQTPLSLPVTPGEPASISCRSSQTFVHSNVNTYLQWYLQKPGQSPQLLIYKVSNRFSGVPDRFSGSGSGTDFTLKISRVEAEDVGVYYCFQGSHVPYTFGQGTKLEIK: 82900
- hAb001H1aL1a (antibody, human IgG1, V domains shown) VH: EVQLVESGGGLVQPGGSLRLSCAASGFSFNTNAMNWVRQAPGKGLEWVGRIRSKSNNYATYYADSVKGRFTISRDDSKNSLYLQMNSLKTEDTAVYYCVRDGYYVLFAYWGQGTLVTVSS VL: DIVMTQTPLSLPVTPGEPASISCRFSQSIVNSDGNTYLEWFLQKPGQSPQLLIYKVSNRFSGVPDRFSGSGSGTDFTLKISRVEAEDVGVYYCFQGSHVPFTFGQGTKLEIK: 27200
- hAb003LH2L1 (antibody, human IgG1, V domains shown) VH: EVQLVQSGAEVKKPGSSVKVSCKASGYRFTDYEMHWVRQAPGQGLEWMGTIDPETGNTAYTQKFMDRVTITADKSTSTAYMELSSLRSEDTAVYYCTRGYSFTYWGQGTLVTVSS VL: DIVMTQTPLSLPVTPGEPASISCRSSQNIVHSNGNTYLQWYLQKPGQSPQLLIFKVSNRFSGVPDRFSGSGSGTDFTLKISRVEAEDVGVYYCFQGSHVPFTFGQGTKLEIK: 29600
- hAb007LH1L1e (antibody, human IgG1, V domains shown) VH: EVQLVQSGAEVKKPGSSVKVSCKASGYTFSDYEMHWVRQAPGQGLEWMGTIDPETGNTAYNQKFKGRVTITADKSTSTAYMELSSLRSEDTAVYYCTRPYSLTYWGQGTLVTVSS VL: DIVMTQTPLSLPVTPGEPASISCRSSQSFVHSNVDTYLQWYLQKPGQSPQLLIYKVSNRFSGVPDRFSGSGSGTDFTLKISRVEAEDVGVYYCFQGSHVPYTFGQGTKLEIK: 59700
- hAb007LH1L1d (antibody, human IgG1, V domains shown) VH: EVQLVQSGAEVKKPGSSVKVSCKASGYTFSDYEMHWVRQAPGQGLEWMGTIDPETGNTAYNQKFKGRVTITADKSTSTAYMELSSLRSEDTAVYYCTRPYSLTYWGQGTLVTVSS VL: DIVMTQTPLSLPVTPGEPASISCRSSQSFVHSNSDTYLQWYLQKPGQSPQLLIYKVSNRFSGVPDRFSGSGSGTDFTLKISRVEAEDVGVYYCFQGSHVPYTFGQGTKLEIK: 80400

*Q* Entry under review: hAb001H1L1a (antibody, human IgG1, V domains shown) VH: EVQLVESGGGLVQPGGSLRLSCAASGFSFNTNAMNWVRQAPGKGLEWVGRIRSKSNNYATYYADSVKDRFTISRDDSKNSLYLQMNSLKTEDTAVYYCVRDGYYVLFAYWGQGTLVTVSS VL: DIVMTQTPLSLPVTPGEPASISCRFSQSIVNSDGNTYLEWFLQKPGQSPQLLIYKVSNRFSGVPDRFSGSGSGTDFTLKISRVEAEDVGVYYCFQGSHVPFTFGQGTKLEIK . Reported Max MFI?
*A* 24900

*Q* Let us now turn to hAb003LH3L1 (antibody, human IgG1, V domains shown) VH: EVQLVQSGAEVKKPGSSVKVSCKASGYRFTDYEMHWVRQAPGQGLEWMGTIDPETGNTAYTQKFMDRVTLTADKSTSTAYMELSSLRSEDTAVYYCTRGYSFTYWGQGTLVTVSS VL: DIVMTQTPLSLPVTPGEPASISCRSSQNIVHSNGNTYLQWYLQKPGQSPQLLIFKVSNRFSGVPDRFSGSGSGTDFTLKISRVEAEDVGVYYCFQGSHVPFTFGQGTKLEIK
*A* 30900

*Q* Let us now turn to GC33 IgG (antibody, V domains shown) VH: QVQLVQSGAEVKKPGASVKVSCKASGYTFTDYEMHWVRQAPGQGLEWMGALDPKTGDTAYSQKFKGRVTLTADKSTSTAYMELSSLTSEDTAVYYCTRFYSYTYWGQGTLVTVSS VL: DVVMTQSPLSLPVTPGEPASISCRSSQSLVHSNRNTYLHWYLQKPGQSPQLLIYKVSNRFSGVPDRFSGSGSGTDFTLKISRVEAEDVGVYYCSQNTHVPPTFGQGTKLEIKR
*A* 87000
